Tested on: Clostridium sporogenes DSM 1664
Experiment: fold change of Tryptamine concentration vs plate DMSO controls (fold change (ratio)); higher = more amine produced, active = hit call of the paper (significant change in both replicates, either direction)
Settings: incubation time: 27 h, anaerobic, 37 °C
Counter-ions that a name gives are not always drawn.
MEASURED_ENDPOINT: fold change of Tryptamine concentration
// keep it numeric: no unit symbol after the value

Guide cases for fold change of Tryptamine concentration, answers given:
>>> result("O=C1NS(=O)(=O)c2ccccc21 [Saccharin] (50 µM)")
1.02
>>> result("CCCCN1CCCCC1C(=O)Nc1c(C)cccc1C (stereo not drawn) [Bupivacaine hydrochloride] (20 µM)")
1.02
>>> result("O=C(O)c1cc(/N=N/c2ccc(S(=O)(=O)Nc3ccccn3)cc2)ccc1O [Sulfasalazine] (20 µM)")
1.01
>>> result("O=c1[nH]c(=O)n(C2CCCO2)cc1F (stereo not drawn) [Tegafur] (20 µM)")
1.01
>>> result("CCCCCCCCCCCCCCCCCCCCCC(=O)Nc1ccn([C@@H]2O[C@H](CO)[C@@H](O)[C@@H]2O)c(=O)n1 [Enocitabine] (20 µM)")
0.984
>>> result("CC(=O)OCC(=O)[C@@]1(O)CC[C@H]2[C@@H]3CCC4=CC(=O)CC[C@]4(C)[C@@]3(F)[C@@H](O)C[C@@]21C [Fludrocortisone acetate] (20 µM)")
1
>>> result("O=C(O)c1cc(=O)c2ccccc2o1 [Chromocarb] (20 µM)")
1.01

Next, consider the following compound.
Q) Reported fold change of Tryptamine concentration for O=C1c2c(O)ccc(O)c2C(=O)c2c(NCCNCCO)ccc(NCCNCCO)c21 [Mitoxantrone dihydrochloride] (20 µM) : what is it?
A) 1.01
